B1: KLHL12 (parent)
chain: LDYTADEDGVWYSVAPMNVRRGLA

- Variants of: B1
- testName: protein stability index of a GFP-peptide fusion (GPS, HEK-293T) (PSI 1-6); higher = more stable;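 also: lentivirally expressed fusions sorted by FACS into six bins by GFP to DsRed ratio, PSI derived from sequencing read proportions per bin multiplied by bin number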
- measurementParameters: c terminus: a fixed tail appended
resultType: protein stability index
Hey, just send me the number, nothing else.

sequenceText | resultType | reportedResult
LDYTADEDGVWYSVAPMNVRRYLA [G22Y] | protein stability index | 2.17
LDYTADEDGVWASVAPMNVRRGLA [Y12A] | protein stability index | 3.55
LDYTADEDGVWYSVPPMNVRRGLA [A15P] | protein stability index | 2.76

Task: Return reported protein stability index; argument: LDYTADEDGVWYSVAPANVRRGLA [M17A]
Output: 2.45

Task: Now consider LDYTADEDGVTYSVAPMNVRRGLA [W11T] and answer again.
Output: 2.99

Task: Now consider LDYTADEDGVWYSVAPMWVRRGLA [N18W] and answer again.
Output: 2.37
